Below, each entry is listed alongside its reported IC50.
# experimental-system: GST-tagged GDP-loaded KRAS G12V (amino acids 1-169) (Homo sapiens, UniProt P01116, G12V)
# Construct: GST-tagged GDP-loaded KRAS G12V (amino acids 1-169)
# Sequence (P01116 1-169 isoform P01116-2 G12V): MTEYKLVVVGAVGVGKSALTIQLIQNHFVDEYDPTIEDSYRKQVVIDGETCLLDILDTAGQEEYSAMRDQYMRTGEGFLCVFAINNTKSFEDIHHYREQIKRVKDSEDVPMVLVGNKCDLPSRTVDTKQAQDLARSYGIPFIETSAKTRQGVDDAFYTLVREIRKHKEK
# protocol: KRAS G12V probe displacement assay (TR-FRET)
# condition-info: displacement of biotinylated probe 2 from GDP-loaded KRAS G12V
Give a bare numeral; the unit nM is implied.

In the examples that follow, each entry is paired with its recorded IC50.
molecule	IC50 (nM)
Nc1nc2c(-c3c(C(F)(F)F)cc4c(NC5C6CCCC65)nc(OC[C@@]56CCCN5C[C@H](F)C6)nc4c3F)ccc(F)c2s1 (stereo partly drawn)	43
Nc1nc2c(-c3c(C(F)(F)F)cc4c(N5CC(F)(F)C5)nc(OC[C@@]56CCCN5C[C@H](F)C6)nc4c3F)ccc(F)c2s1	25
Nc1nc2c(-c3c(C(F)(F)F)cc4c(N5CC[C@@H](F)C5)nc(OC[C@@]56CCCN5C[C@H](F)C6)nc4c3F)ccc(F)c2s1	11
N#CC1CCN(c2nc(OC[C@@]34CCCN3C[C@H](F)C4)nc3c(F)c(-c4cc(N)cc(Cl)c4C(F)(F)F)ncc23)CC1F (stereo partly drawn)	28
N#CC1CCN(c2nc(OC[C@@]34CCCN3C[C@H](F)C4)nc3c(F)c(-c4ccc(F)c5sc(N)nc45)c(C(F)(F)F)cc23)CC1	0.77

Note: attention shifts to another entry.
Please fill in: IC50 reported for CC1CN(c2nc(OC[C@@]34CCCN3C[C@H](F)C4)nc3c(F)c(-c4ccc(F)c5sc(N)nc45)c(C(F)(F)F)cc23)C1 = 52

----------
Catalogue of IC50 values
# experimental-system: GST-tagged GDP-loaded KRAS G12V (amino acids 1-169) (Homo sapiens, UniProt P01116, G12V)
# Construct: GST-tagged GDP-loaded KRAS G12V (amino acids 1-169); made in house; host or cells: E. coli
# protocol: KRAS G12V probe displacement assay (TR-FRET)
# Format: binding
# condition-info: displacement of biotinylated probe 2 from GDP-loaded KRAS G12V
The answer is to be given in µM; state only the numeric part.

C[C@]1(O)CCCN(c2nc(OC[C@@]34CCCN3C[C@H](F)C4)nc3c(F)c(-c4cc(N)cc(Cl)c4C(F)(F)F)ncc23)C1 0.015

// IC50 lookup, molecule = N#CC1CCN(c2nc(OC[C@@]34CCCN3C[C@H](F)C4)nc3c(F)c(-c4cc(N)cc(Cl)c4C(F)(F)F)ncc23)CC1 , result: 0.013

For reference, reported IC50 for Nc1nc2c(-c3c(C(F)(F)F)cc4c(N5CCC6(CCNC6=O)CC5)nc(OC[C@@]56CCCN5C[C@H](F)C6)nc4c3F)ccc(F)c2s1 stands at 0.0027

----------
As shown below, each of these compounds has a reported IC50 value.
# experimental-system: GST-tagged GDP-loaded KRAS G12V (amino acids 1-169) (Homo sapiens, UniProt P01116, G12V)
# Construct: GST-tagged GDP-loaded KRAS G12V (amino acids 1-169)
# protocol: KRAS G12V probe displacement assay (TR-FRET)
# condition-info: displacement of biotinylated probe 2 from GDP-loaded KRAS G12V

Consider the reported IC50 for these compounds:
compound	experimental-system	reported-result
CC[C@@H]1CCCN1c1nc(OC[C@@]23CCCN2C[C@H](F)C3)nc2c(F)c(-c3ccc(F)c4sc(N)nc34)c(C(F)(F)F)cc12 [Example 58]	GST-tagged GDP-loaded KRAS G12V (amino acids 1-169) (Homo sapiens, UniProt P01116, G12V)	40 nM
CC1(C)CCCN1c1nc(OC[C@@]23CCCN2C[C@H](F)C3)nc2c(F)c(-c3ccc(F)c4sc(N)nc34)c(C(F)(F)F)cc12 [Example 57]	GST-tagged GDP-loaded KRAS G12V (amino acids 1-169) (Homo sapiens, UniProt P01116, G12V)	180 nM
CC1CC1Nc1nc(OC[C@@]23CCCN2C[C@H](F)C3)nc2c(F)c(-c3ccc(F)c4sc(N)nc34)c(C(F)(F)F)cc12 (stereo partly drawn) [Example 3]	GST-tagged GDP-loaded KRAS G12V (amino acids 1-169) (Homo sapiens, UniProt P01116, G12V)	6.2 nM
COCCN1CC2(CCN(c3nc(OC[C@@]45CCCN4C[C@H](F)C5)nc4c(F)c(-c5ccc(F)c6sc(N)nc56)c(C(F)(F)F)cc34)CC2)OC1=O [Example 94]	GST-tagged GDP-loaded KRAS G12V (amino acids 1-169) (Homo sapiens, UniProt P01116, G12V)	2.5 nM

Entry CC1CN(c2nc(OC[C@@]34CCCN3C[C@H](F)C4)nc3c(F)c(-c4cc(N)cc(Cl)c4C(F)(F)F)ncc23)CCC1C#N (stereo partly drawn) [Example 123] — recorded IC50 = 22 nM

For this compound ( N#C[C@H]1C[C@@H](Nc2nc(OC[C@@]34CCCN3C[C@H](F)C4)nc3c(F)c(-c4ccc(F)c5sc(N)nc45)c(C(F)(F)F)cc23)C1 [Example 18] ), measured IC50 is 13 nM

GET /value?item= N#CC1CCCCN(c2nc(OC[C@@]34CCCN3C[C@H](F)C4)nc3c(F)c(-c4ccc(F)c5sc(N)nc45)c(C(F)(F)F)cc23)C1 (stereo partly drawn) [Example 83] &field=IC50 returns 6.4 nM

Note to self: IC50 recorded for Cc1cc(N)nc(-c2c(Cl)cc3c(N4CCC5(CC4)CN(C)C(=O)O5)nc(OC[C@@]45CCCN4C[C@H](F)C5)nc3c2F)c1C(F)(F)F [Example 106] was 23 nM

IC50 in this record for N#CC1CCCN(c2nc(OC[C@@]34CCCN3C[C@H](F)C4)nc3c(F)c(-c4ccc(F)c5sc(N)nc45)c(C(F)(F)F)cc23)CC1 (stereo partly drawn) [Example 82] : 0.74 nM

So, CCC1CC1Nc1nc(OC[C@@]23CCCN2C[C@H](F)C3)nc2c(F)c(-c3ccc(F)c4sc(N)nc34)c(C(F)(F)F)cc12 (stereo partly drawn) [Example 4] ? Its IC50 was 29 nM

// IC50 lookup, compound = C[C@@H]1C[C@@H](C#N)CCN1c1nc(OC[C@@]23CCCN2C[C@H](F)C3)nc2c(F)c(-c3ccc(F)c4sc(N)c(C#N)c34)c(Cl)cc12 [Example 101] , result: 0.28 nM

Short answer for Nc1nc2c(-c3c(Cl)cc4c(N[C@H]5[C@@H]6COC[C@@H]65)nc(OC[C@@]56CCCN5C[C@H](F)C6)nc4c3F)ccc(F)c2s1 [Example 29] : IC50 was 15 nM

Query C[C@]1(O)CCCN(c2nc(OC[C@@]34CCCN3C[C@H](F)C4)nc3c(F)c(-c4ccc(F)c5sc(N)nc45)c(C(F)(F)F)cc23)C1 [Example 79] yields IC50 of 28 nM

Per the record, Nc1nc2c(-c3c(C(F)(F)F)cc4c(N5CCCC(CO)CC5)nc(OC[C@@]56CCCN5C[C@H](F)C6)nc4c3F)ccc(F)c2s1 (stereo partly drawn) [Example 85] has IC50 of 2.3 nM

Summary for this compound, N#C[C@H]1CCCN(c2nc(OC[C@@]34CCCN3C[C@H](F)C4)nc3c(F)c(-c4ccc(F)c5sc(N)nc45)c(C(F)(F)F)cc23)C1 [Example 77] : IC50 is 17 nM

IC50 recorded for this compound, Nc1nc2c(-c3c(C(F)(F)F)cc4c(N5CC[C@@H](O)C5)nc(OC[C@@]56CCCN5C[C@H](F)C6)nc4c3F)ccc(F)c2s1 [Example 63] , is 11 nM

Per the record, CC1CCN1c1nc(OC[C@@]23CCCN2C[C@H](F)C3)nc2c(F)c(-c3ccc(F)c4sc(N)nc34)c(C(F)(F)F)cc12 (stereo partly drawn) [Example 35] has IC50 of 30 nM

Form field IC50, entry Nc1nc2c(-c3c(C(F)(F)F)cc4c(N5CCC6(CC5)CNC(=O)CO6)nc(OC[C@@]56CCCN5C[C@H](F)C6)nc4c3F)ccc(F)c2s1 [Example 98] : 51 nM

According to the records, this compound Cc1cc(N)nc(-c2c(Cl)cc3c(N4CC[C@H](O)C4)nc(OC[C@@]45CCCN4C[C@H](F)C5)nc3c2F)c1C(F)(F)F [Example 102] displays IC50 of 46 nM

----------
# Test system: pERK1/2(THR202/TYR204) level, AsPC-1 cell line
# protocol: KRAS G12D pERK assay (HTRF)
# Type: cell-based
# condition-info: Homo sapiens, ASPC1; AsPC-1 cells, 2 h compound treatment
readout-kind: IC50

Example cases with answers are listed next.
C[C@@]1(O)CCCN(c2nc(OC[C@@]34CCCN3C[C@H](F)C4)nc3c(F)c(-c4cc(N)cc(Cl)c4C(F)(F)F)ncc23)C1 0.076 µM
N#CC1CCN(c2nc(OC[C@@]34CCCN3C[C@H](F)C4)nc3c(F)c(-c4ccc(F)c5sc(N)nc45)c(C(F)(F)F)cc23)CC1 0.686 µM
C[C@@H]1C[C@@H](C#N)CCN1c1nc(OC[C@@]23CCCN2C[C@H](F)C3)nc2c(F)c(-c3ccc(F)c4sc(N)c(C#N)c34)c(C(F)(F)F)cc12 0.056 µM
Nc1nc2c(-c3c(C(F)(F)F)cc4c(NC5CC5)nc(OC[C@@]56CCCN5C[C@H](F)C6)nc4c3F)ccc(F)c2s1 2.46 µM

Now, please, on to the next compound.
Lab note: measured IC50 of Nc1nc2c(-c3c(C(F)(F)F)cc4c(N5CCC6(CC5)CNC(=O)O6)nc(OC[C@@]56CCCN5C[C@H](F)C6)nc4c3F)ccc(F)c2s1 was 5.44 µM
